assay: Compound was tested for the inhibition of [3H]-thymidine uptake in CHO p-5 cells transfected with human Dopamine receptor D4.2
valueType: pIC50
# reply with the number alone; pIC50 is -log10 of concentration in mol/L

# pIC50 lookup, item `Cc1ccc(N2CCN(Cc3ccc4ccc(=O)oc4c3)CC2)cc1Cl`
8.27
